Hello, the source for this data is the nanobody polyreactivity screen of Harvey et al. (2022), in case you need it.

assay: yeast display, Sf9 membrane polyspecificity reagent, FACS + sequencing; frameworks hold sequencing errors
Quantity Name: polyreactivity (PSR sort gate)

QVQLVESGGGLVQAGGSLRLSCAASGRIFLRNAMGWYRQEPGKERELVASIDRSGGSTYYADSVKGRFTISRDNAKNTVFLQMNSLKPEDTAVYYCAAAYWYLYYYWGQGTQVTVSS
low polyreactivity
QVQLVESGGGLVQAGGSLRLSCAASGIIFYLNAMGWYRQAPGKERELVAAISSSGGRTNYADSVKGRFTISRDNAKNSVYLQMNSLKPEDTAVYFCAAVITFYRYPPGETYYYWGQGTQVTVSS
high polyreactivity
QVQLVESGGGLVQAGGSLRLSCAASGSTFYVNDMGWYRQAPGKERELVAAITWGVGDTYYADSVKGRFTISRDNAKNTVYLQMNSLKPEDTAVYYCAADTSYYYAYTQMEYWGQGTQVTVSS
low polyreactivity
QLQIVESGGGLVQAGGSLRLSCAASGSTFSYNAMGWYRQAPRKQRELVASISTSGGSTYYADSVKGRFTISRDNANNTVYLEMNSLKPEDTAVYYCNAPTSDIYSDFDSWGQGTQVTVSS
low polyreactivity
QDQLVESGGGLVQAAGSLRLTCAASGLTFAYYAMGWNRQAPGKERELVAAISWNGGRTYYADSVKGRFTISRDNAKNTVYLQMNSLKPEDTAVDYCAAEVTSSFYWGQGSQVTVSS
high polyreactivity
QDQHVESGGGLVQAGGSLRLSCAASGSTFKIYAMGWYRQPHGKESELVARITGRGGSTYYADSVKGRFTISRDNAKNTVYLQMNSLKPEDTAVYYCAARVYTYYDDLHKRYYWGQGTQVTVSS
high polyreactivity
QVQLVESGGGLVQEGGSLRLSCAASGSILAGYAMGWYRQPPRKERELVDDITSGGDTYYADSVKGRFTISRDNAKNTVYLQMKSLKPEDTAVYYCNAVYEGRYEYAYYYRYDYWGQGTQVTVSS
high polyreactivity
QVQLVESGGGLVQAGGSLRLSCAASGSTFYDYAMGWYRQAPGKERELVAAMSSSGARTYYADSVKGRFTISRDNAKNSVYLQMNSLKPEDTAVYYCGAKPHTRTTCPSGYWGQATQVTVSS
high polyreactivity

Please go through the list and note polyreactivity (PSR sort gate) for each sequence.
1. QVQLVESGGGLVQAGGSLRLSCAASGLIFWAYAMGWYRQAPGKERELVAAISWSGARTYYADSVKGRFTISRDNAKNTVYLQMNSLKPEDTAVYYCAAGVSSSSSGYEGDYWGQGTQVTVSS
2. QVQLVESGGGLVKAGGSLRLSCAASGSTNDRYAMGLYRQAPGKEREFVAAITKRGGSTYYADSVKGRFTISRDNAKITVYLQMNSLKPEDTAVYYCGARYGRGSAYTEYEYWGQGTQVTVSS
3. QVQLVESGGGLVQAGGSLRLSCAASGFIFRNYAMGWYRQAPGKERELVAAIDSSGGSTYYADSVKGRFTISRDNAKNTVYLQMNSLKPEDTAVYYCAAESYYYQYEYWGQGTQVTVSS

-- reply
1. high polyreactivity
2. high polyreactivity
3. high polyreactivity
